Target: Estrogen receptor (Bos taurus) (UniProt Q9XSB5+P49884)
Assay: Relative binding affinity(RBA) for 50% displacement of [3H]-estradiol from Estrogen receptor compared to 17-beta-estradiol
Type: protein assay
RESULT_TYPE: RBA

{"columns": ["COMPOUND", "RESULT_TYPE", "MODIFIER_SIGN", "NUMBER"],
 "data": [
  ["CCc1cc2cc(OC(C)=O)ccc2c2cc3ccc(OC(C)=O)cc3n12", "RBA", "=", 1.5],
  ["CC(=O)Oc1ccc2c(c1)CCn1c-2cc2ccc(OC(C)=O)cc21", "RBA", "=", 0.16],
  ["CC(=O)Oc1ccc2c(c1)CCn1c-2cc2cc(OC(C)=O)c(OC(C)=O)cc21", "RBA", "=", 0.01],
  ["CCC1Cn2c(cc3cc(OC(C)=O)ccc32)-c2ccc(OC(C)=O)cc21 (stereo not drawn)", "RBA", "=", 2.5],
  ["CC(=O)Oc1cc2c(cc1OC(C)=O)-c1cc3cc(OC(C)=O)c(OC(C)=O)cc3n1CC2", "RBA", "<", 0.01],
  ["CCC1Cc2cc(OC(C)=O)c(OC(C)=O)cc2-c2cc3cc(OC(C)=O)ccc3n21 (stereo not drawn)", "RBA", "=", 2.9],
  ["CC(=O)Oc1ccc2c(c1)CCn1c-2cc2cc(OC(C)=O)ccc21", "RBA", "=", 2],
  ["CC(=O)Oc1ccc2c(c1)cc1n2CCc2cc(OC(C)=O)c(OC(C)=O)cc2-1", "RBA", "=", 0.15],
  ["CCC1Cc2cc(OC(C)=O)ccc2-c2cc3cc(OC(C)=O)ccc3n21 (stereo not drawn)", "RBA", "=", 17],
  ["CCC1Cc2cc(OC(C)=O)ccc2-c2cc3ccc(OC(C)=O)cc3n21 (stereo not drawn)", "RBA", "=", 4],
  ["CC(=O)Oc1ccc2cc3n(c2c1)CCc1cc(OC(C)=O)c(OC(C)=O)cc1-3", "RBA", "=", 0.05],
  ["CCC1Cc2cc(OC(C)=O)ccc2-c2c(C=O)c3cc(OC(C)=O)ccc3n21 (stereo not drawn)", "RBA", "=", 4.6],
  ["CC(=O)Oc1ccc2c(c1)CC(C)n1c-2cc2cc(OC(C)=O)ccc21 (stereo not drawn)", "RBA", "=", 12]
]}
